- System: Aspergillus niger
- experimentNotes: Antimicrobial activity against Aspergillus niger assessed as growth inhibition by microdilution method
- Assay type: functional
testReadout: MIC (µg/mL)
The reply should contain only the number, in µg/mL.

[[record]]
structurestring = "Cc1ccc2nc3c(cc2c1)C=NN=C(Nc1ccccc1)S3"
systemname = "Aspergillus niger"
measuredresult = 1000

[[record]]
structurestring = "Cc1cccc2cc3c(nc12)SC(Nc1cccc(F)c1)=NN=C3"
systemname = "Aspergillus niger"
measuredresult = 1000

[[record]]
structurestring = "Cc1ccccc1NC1=NN=Cc2cc3ccc(Cl)c(C)c3nc2S1"
systemname = "Aspergillus niger"
measuredresult = 500

[[record]]
structurestring = "COc1ccc2nc3c(cc2c1)C=NN=C(NCc1ccccc1)S3"
systemname = "Aspergillus niger"
measuredresult = 1000

[[record]]
structurestring = "COc1ccc2nc3c(cc2c1)C=NN=C(Nc1ccccc1)S3"
systemname = "Aspergillus niger"
measuredresult = 500

[[record]]
structurestring = "Cc1ccc2nc3c(cc2c1)C=NN=C(NCc1ccccc1)S3"
systemname = "Aspergillus niger"
measuredresult = 1000

[[record]]
structurestring = "COc1ccc2nc3c(cc2c1)C=NN=C(Nc1ccc(Cl)cc1)S3"
systemname = "Aspergillus niger"
measuredresult = 500

[[record]]
structurestring = "Cc1c(Cl)ccc2cc3c(nc12)SC(NCc1ccccc1)=NN=C3"
systemname = "Aspergillus niger"
measuredresult = 500

[[record]]
structurestring = "COc1ccc2nc3c(cc2c1)C=NN=C(NCCN1CCOCC1)S3"
systemname = "Aspergillus niger"
measuredresult = 1000


In the following, a different molecule is considered.
The recorded MIC for COc1ccc2nc3c(cc2c1)C=NN=C(Nc1ccccc1C)S3 is 1000

###

Overview of reported MIC across a group of compounds:
- System: Aspergillus niger
- experimentNotes: Antimicrobial activity against Aspergillus niger assessed as growth inhibition by microdilution method
- Type: functional
Answer with a number only, understood to be in µg/mL.

Short answer on Aspergillus niger for Cc1ccc2nc3c(cc2c1)C=NN=C(Nc1c(C)cccc1C)S3 , MIC: 1000

Case CCc1ccc(NC2=NN=Cc3cc4cc(OC)ccc4nc3S2)cc1 , Aspergillus niger, MIC recorded as 500

Record for CCc1ccc(NC2=NN=Cc3cc4ccc(Cl)c(C)c4nc3S2)cc1 under target or system Aspergillus niger: MIC reported as 1000

Observed MIC on Aspergillus niger, entry CCc1ccc(NC2=NN=Cc3cc4cccc(C)c4nc3S2)cc1 , equals 500

Measured MIC (Aspergillus niger), entry Cc1c(Cl)ccc2cc3c(nc12)SC(Nc1ccc(Cl)cc1)=NN=C3 : 500

Query Cc1c(Cl)ccc2cc3c(nc12)SC(NCCN1CCOCC1)=NN=C3 on Aspergillus niger; MIC returned: 1000

Entry Cc1cccc2cc3c(nc12)SC(Nc1ccc(F)cc1)=NN=C3 : MIC on Aspergillus niger = 1000

For Cc1c(Cl)ccc2cc3c(nc12)SC(Nc1ccc(F)cc1)=NN=C3 on Aspergillus niger, measured MIC was 500

Form field MIC for item Cc1ccc2nc3c(cc2c1)C=NN=C(Nc1ccccc1C)S3 on Aspergillus niger: 250

Record Cc1ccc2nc3c(cc2c1)C=NN=C(Nc1ccc(Cl)cc1)S3 has Aspergillus niger MIC equal to 500

###

Salmonella typhimurium: reported MIC for various molecules.

[[record]]
molecule = "COc1ccc2nc3c(cc2c1)C=NN=C(Nc1c(C)cccc1C)S3"
measuredresult = "500 µg/mL"

[[record]]
molecule = "Cc1c(Cl)ccc2cc3c(nc12)SC(NCc1ccccc1)=NN=C3"
measuredresult = "60 µg/mL"

[[record]]
molecule = "Cc1ccc(NC2=NN=Cc3cc4cc(C)ccc4nc3S2)c(C)c1"
measuredresult = "500 µg/mL"

[[record]]
molecule = "CCc1ccc(NC2=NN=Cc3cc4ccc(Cl)c(C)c4nc3S2)cc1"
measuredresult = "1000 µg/mL"

[[record]]
molecule = "COc1ccc2nc3c(cc2c1)C=NN=C(Nc1ccc(F)cc1)S3"
measuredresult = "250 µg/mL"

[[record]]
molecule = "Cc1c(Cl)ccc2cc3c(nc12)SC(NCCN1CCOCC1)=NN=C3"
measuredresult = "125 µg/mL"

[[record]]
molecule = "Cc1cccc(C)c1NC1=NN=Cc2cc3cccc(C)c3nc2S1"
measuredresult = "1000 µg/mL"

[[record]]
molecule = "Cc1ccc2nc3c(cc2c1)C=NN=C(Nc1ccccc1Cl)S3"
measuredresult = "1000 µg/mL"


Recorded MIC for Cc1cccc2cc3c(nc12)SC(Nc1cccc(F)c1)=NN=C3 on Salmonella typhimurium was 500 µg/mL

# value of MIC, Salmonella typhimurium, item Cc1ccc2nc3c(cc2c1)C=NN=C(Nc1ccccc1F)S3 = 1000 µg/mL

Readout MIC for Cc1ccc2nc3c(cc2c1)C=NN=C(Nc1cccc(Cl)c1)S3 , test system Salmonella typhimurium, was 1000 µg/mL

Short answer on Salmonella typhimurium for Cc1ccc2nc3c(cc2c1)C=NN=C(Nc1ccccc1)S3 , MIC: 500 µg/mL

Measured MIC for this entry O=C(N[C@H](CO)[C@H](O)c1ccc([N+](=O)[O-])cc1)C(Cl)Cl [CHLORAMPHENICOL] on Salmonella typhimurium: 1000 µg/mL

Given the molecule Cc1ccc2nc3c(cc2c1)C=NN=C(Nc1ccc(Cl)cc1)S3 and test system Salmonella typhimurium, the measured MIC is > 1000 µg/mL
